TARGET_OR_TEST_SYSTEM: HLA-A*0301 on mild-acid treated EKR cells (human)
METHOD_NOTES: competition vs FL-reference peptide, EKR cells, 4°C 24 hr
pIC50: −log10 of the molar value.
PARAMETER: pIC50

Before answering, review these 3 worked examples.
ELELAENR [HIV-1 pol 459-466] | < 4.00
AVFIHNFKR [HIV-1 pol 898-906] | 6.30
SVTVLDVGDAY [HIV-1 pol 264-274] | < 4.00

get_value(item= PIETVPVK [HIV-1 pol 163-170] , readout=pIC50) returns < 4.00

These entries and their values trace back to patent US20070025968A1.
